test details: 1-Octanol/phosphate buffer partition coefficient, logP of the compound at pH 7.40
Format: physicochemical
test parameters: pH 7.4
observable: logD

- compound: "Cc1cccc(Nc2ccncc2S(=O)(=O)NC(=O)NC(C)C)c1 [TORSEMIDE]"
  logD: 0.45
- compound: "Cc1cccc(Nc2ccncc2S(=O)(=O)NC(=NC#N)NC(C)C)c1"
  logD: 0.86
- compound: "Cc1cccc(Nc2ccncc2S(=O)(=O)N/C(=C/[N+](=O)[O-])NC(C)C)c1"
  logD: 1.12

# context switch: different compound, same logD
Challenge: Which logD is listed for Cc1cccc(Nc2ccncc2S(=O)(=O)NC(=S)NC(C)C)c1 ?
Response given: 0.61

====

In this section, each of the compounds is paired with its reported pKa.
test details: Dissociation constant, pKa of compound
Assay type: physicochemical
Enter a number only.

- compound: "Cc1cccc(Nc2ccncc2S(=O)(=O)NC(=O)NC(C)C)c1 [TORSEMIDE]"
  pKa: 6.68

Challenge: Which pKa is listed for Cc1cccc(Nc2ccncc2S(=O)(=O)NC(=NC#N)NC(C)C)c1 ?
Response given: 6

====

test details: Oral bioavailability in rat
Type: ADME, organism-based
test parameters: in vivo
observable: bioavailability (%)
Field format: number, assumed %, no unit text.

Challenge: Which bioavailability is listed for COC(=O)C1=C(C)NC(C)=C(C(=O)OC)C1c1cccc(NC(=O)NCCCN2CCC(c3cccc(OC)c3)CC2)c1 ?
Response given: 0.1

====

test details: Permeability coefficient of the compound in human Caco-2 cells
Type: ADME, cell-based
test parameters: read-out: Kp
In this section, each of the compounds is paired with its reported Papp.
Field format: number, assumed ×10⁻⁶ cm/s, no unit text.

- structure smiles: "COC(=O)C1=C(C)NC(C)=C(C(=O)OC)C1c1cccc(NC(=O)NCCCN2CCC(c3cccc(OC)c3)CC2)c1"
  Papp [×10⁻⁶ cm/s]: 1.9

# context switch: different compound, same Papp
Challenge: Which Papp is listed for COC(=O)C1=C(C)NC(C)=C(C(=O)OC)C1c1cccc(N/C(=N/C#N)NCCCN2CCC(c3cccc(OC)c3)CC2)c1 ?
Response given: 4.3
